target: human catalytic domain ROCK II protein (amino acids 5-554) with a N-terminal GST tag (Homo sapiens); assay: biochemical
Sequence (O75116 5-554): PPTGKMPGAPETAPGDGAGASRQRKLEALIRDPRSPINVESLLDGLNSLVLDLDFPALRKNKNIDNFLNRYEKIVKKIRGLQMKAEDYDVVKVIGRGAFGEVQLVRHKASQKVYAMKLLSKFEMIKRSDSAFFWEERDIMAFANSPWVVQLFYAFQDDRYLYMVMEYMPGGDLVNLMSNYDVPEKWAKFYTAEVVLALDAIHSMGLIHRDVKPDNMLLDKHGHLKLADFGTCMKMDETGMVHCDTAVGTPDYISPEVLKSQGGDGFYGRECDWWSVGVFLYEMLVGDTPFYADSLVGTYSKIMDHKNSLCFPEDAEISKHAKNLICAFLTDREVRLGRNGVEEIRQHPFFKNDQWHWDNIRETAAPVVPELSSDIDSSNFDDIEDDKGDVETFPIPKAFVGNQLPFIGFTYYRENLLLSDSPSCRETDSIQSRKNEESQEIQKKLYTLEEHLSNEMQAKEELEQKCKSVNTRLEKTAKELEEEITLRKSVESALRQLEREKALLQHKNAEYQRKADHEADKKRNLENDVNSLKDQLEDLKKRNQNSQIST
MEASURED METRIC: IC50

A selection of reference data follows.
# SMILES STRUCTURE, IC50
measured = [
    ("C[C@@H]1CN(c2ccncc2F)CCN1C(=O)N[C@H](C)c1cccc2c1N(C)CCO2", "3070 nM"),
    ("COc1cccc([C@@H](C)OC(=O)N2CCN(c3ccnc(F)c3)C[C@H]2C)c1", "30.7 nM"),
    ("C[C@@H](NC(=O)N1CCN(c2ccncc2F)CC1)c1cccc(OC(F)F)c1", "24.2 nM"),
    ("COc1ccc(F)c([C@@H](C)NC(=O)N2CCN(c3ccnc(F)c3)C[C@H]2C)c1", "38.3 nM"),
    ("C[C@@H]1CN(c2ccncc2F)CCN1C(=O)NCc1ccccc1Cl", "13 nM"),
    ("C[C@@H]1CN(c2ccncc2F)C[C@@H](C)N1C(=O)NCc1ccccc1Cl", "563 nM"),
]

Query block: Which IC50 value is on record for O=C(NCc1cccc(OC(F)F)c1)N1CCN(c2ccncc2F)CC1 ?
Result block: 84.5 nM

Query block: Queued: COc1cccc([C@@H](C)NC(=O)N2C[C@H]3C[C@@H]2CN3c2ccncc2F)c1
Result block: 238 nM

###

tested on: cellular ROCK activity (cofilin phosphorylation at Ser3) in A7r5 rat smooth muscle cells; experiment: Cellular ROCK activity: cofilin (Ser3) phosphorylation, In-Cell Western assay; type: cell-based; conditions: Rattus norvegicus, A7R5, 1 h, 1 hour compound incubation, phospho-cofilin (Ser3), read-out: CELL_IC50
MEASURED METRIC: pIC50
Note: pIC50 values are expressed as the negative base-10 logarithm of concentration in M.

# SMILES STRUCTURE, pIC50
records = [
    ("C[C@@H]1CN(c2ccncc2F)CCN1C(=O)NCc1cccc2ncccc12", 7.12),
    ("COc1ccc(Cl)c([C@@H](C)NC(=O)N2CCN(c3ccnc(F)c3)C[C@H]2C)c1", 5.62),
    ("[2H]C([2H])([2H])Oc1cccc([C@@H](C)NC(=O)N2CCN(c3ccncc3F)CC2)c1", 6.73),
]

Let us move to another entry and its pIC50.
Query block: Query pIC50 on cellular ROCK activity (cofilin phosphorylation at Ser3) in A7r5 rat smooth muscle cells for C[C@@H]1CN(c2ccncc2F)CCN1C(=O)NCc1cccc2c1OC(F)(F)O2
Result block: 6.01

###

Recorded IC50 by entry
target: human catalytic domain ROCK II protein (amino acids 5-554) with a N-terminal GST tag (Homo sapiens); test: biochemical
Respond with the bare value in nM.

The cases that follow already have their IC50 on record.
# COMPOUND, IC50 [nM]
data = [
    ("COc1cccc([C@@H](C)NC(=O)N2CCN(c3ccncc3F)CC2C)c1 (stereo partly shown) [Example 154]", 19.6),
    ("COc1cccc([C@H](C)NC(=O)N2CCN(c3ccncc3F)CC2)c1Cl [Example 125]", 1160),
    ("C[C@@H]1CN(c2ccncc2F)CCN1C(=O)N[C@H](C)c1cccc(OC(F)F)c1 [Example 136]", 3.8),
]

Query block: What IC50 value was documented for this compound, COc1cc([C@@H](C)NC(=O)N2CCN(c3ccncc3F)C[C@H]2C)ccc1F [Example 53] ?
Result block: 3.5
